# procedureDetails: in vitro
# setupConditions: rat, in vivo
# Description: Intrinsic clearance in rat
metric: CLint scaled

May I ask what CLint scaled has been recorded for `CSc1sc(-c2cc[nH]n2)c2c1C(=O)NCC2` ?
1300 mL/min/kg

Similarly, `CSc1sc(-c2cc[nH]n2)c2c1C(=O)CCC2` ?
6500 mL/min/kg

Similarly, `CCCSc1sc(-c2cc[nH]n2)c2c1C(=O)NC[C@@H]2C` ?
1200 mL/min/kg
